ASSAY_COMMENT: Cell cycle arrest in human SU86.86 cells assessed as accumulation at G1 phase at 15 uM after 36 hrs
Assay type: functional, cell-based
MEASUREMENT_CONTEXT: SU.86.86
VALUE_TYPE: Activity (%)

[
  {
    "STRUCTURE": "CN1CCN(C(=O)c2ccc3c(NC4CCN(Cc5ccccc5)CC4)c4ccccc4nc3c2)CC1",
    "DISPLAY_UNIT": "%",
    "RESULT_NUMBER": 53
  },
  {
    "STRUCTURE": "CN1CCN(C(=O)c2ccc3c(NCCc4c[nH]c5ccccc45)c4ccccc4nc3c2)CC1",
    "DISPLAY_UNIT": "%",
    "RESULT_NUMBER": 50
  },
  {
    "STRUCTURE": "CCN(CC)C(=O)c1ccc2c(NCCc3c[nH]c4ccccc34)c3ccccc3nc2c1",
    "DISPLAY_UNIT": "%",
    "RESULT_NUMBER": 60
  },
  {
    "STRUCTURE": "CN1CCN(C(=O)c2cccc3c(NCCc4c[nH]c5ccccc45)c4ccccc4nc23)CC1",
    "DISPLAY_UNIT": "%",
    "RESULT_NUMBER": 56
  }
]
